Tested on: LXRb:RXRa (NR concentration 270 nM, RXRa partner concentration 90 nM)
experimental.protocol: PBM binding z-score (relative to random genomic background probes); higher = stronger binding; sequences stand for … in GC…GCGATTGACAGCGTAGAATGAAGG
observable: PBM binding z-score
Numbers only.

Reference set (3 entries):
entry.sequence	observable	measured.value
CCAGACACGTGAAAGGTAACTCAGTCTGGTACGC	PBM binding z-score	0.0481
CCGACTGGGGCAGAAAGCTTACCATACCATCCGG	PBM binding z-score	-0.743
CCTACAGGGTCAGCTAGGCCAGAGTAGGGACGGC	PBM binding z-score	1.7

List reported PBM binding z-score for each of these sequences:
1. ATATGTAGCTTAGCTGGGGTCATTCAGACTAGGC
2. ACCATTAGTTGAGACGAGGGCAACCGATAGGTTG
3. ACTATTAGTTGAGACGAGGGCGACCGATAGGTTG
4. ACAGACAGGTGATGAAGTTAACTCAGGCTATCAT
5. CTCGAAAGGTCGTGCTCAGGTGACTATACCAAAC

1: 4.21; 2: 0.214; 3: -0.401; 4: -0.225; 5: 3.69

List reported PBM binding z-score for each of these sequences:
1. CCTAATGGGCCAAAAAGGTCATTGATGCCGATAA
2. TTACCAAGGTGAGTTGAGGTCGTTGATCCAACTC
3. TTACCGAGGTGAAGGTCGTTGATCCCTCTGTAGA
4. TCATATAGGTAAAGGCTAGGTGAAAGTCCGATCT
5. TCTCGGAGGACACGAAGGTCAGAGATTTCCAGAG

4.2
1.39
1.71
0.441
1.25

----------
Tested on: PXR homodimer (NR concentration 270 nM)
experimental.protocol: PBM binding z-score (relative to random genomic background probes); higher = stronger binding; sequences stand for … in GC…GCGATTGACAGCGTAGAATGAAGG
# PBM binding z-score >= 0.03 gives class 1, anything below gives class 0

Is PBM binding z-score for `GCTTATAGGTAATACAAGGTGAAAGTCCGATTGT` at or above 0.03? class 1

Is PBM binding z-score for `GGAACGAGGGCAAGTTGATGGCAGAGTTTGATGG` at or above 0.03? class 1

Is PBM binding z-score for `CCGTCTGGGGCAGAAAGGTTACCATACCATCCGG` at or above 0.03? class 0

Is PBM binding z-score for `CTAGCAAGGTGAACAAGGTCGTTGATTACTATTC` at or above 0.03? class 1

Is PBM binding z-score for `CCTACTTGGCCAAGGTCATTGATCAGTCAAAGCA` at or above 0.03? class 1

Is PBM binding z-score for `ATCTCTAGGTAAAGTTCAGTGTAAGATCGATAGA` at or above 0.03? class 1

Is PBM binding z-score for `CCTACTGGGCCAAGGTCCTTGATCAGTCAAAGCA` at or above 0.03? class 0

Is PBM binding z-score for `CCTACTGGGCCATCACGTCATTGATATCAACGTT` at or above 0.03? class 1

Is PBM binding z-score for `ACTACTTGGTCAGCTGAGGTCACACACAATTCGG` at or above 0.03? class 1

Is PBM binding z-score for `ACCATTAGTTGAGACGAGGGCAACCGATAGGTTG` at or above 0.03? class 1

Is PBM binding z-score for `CCGACTGGGGCAGATAGGTTACCATACCATCCGG` at or above 0.03? class 0

Is PBM binding z-score for `GCAGACAGGTGAAACACAGGTAACTCAGGGTGGC` at or above 0.03? class 0

# credit: the supplement of paper PMC6555819
